Where do the numbers come from? From the Human Domainome abundance scans (Beltran et al. 2025).

Item-by-item account of abundance fitness
B1: WW domain-containing transcription regulator protein 1, residues 116 to 162; numbered along this chain, Q9GZV5 (parent)
chain: QSYDVTDELPLPPGWEMTFTATGQRYFLNHIEKITTWQDPRKAMNQP

Variants of: B1
Assay: abundance fitness (aPCA) (normalised: wild type 0, dead -1); higher = more abundant; growth selection in yeast, the domain comes from the species named
Details: Homo sapiens
endpoint: abundance fitness

INSERT INTO results (residue_change, result) VALUES
  ('E8L', -0.253),
  ('T20M', -0.295),
  ('W15N', -0.616),
  ('A43P', -0.014),
  ('N29A', -0.919),
  ('T20W', -1),
  ('S2Y', -0.226),
  ('H30Q', -0.076),
  ('R25N', -0.448),
  ('N45G', -0.04),
  ('F27S', -0.579),
  ('Q38D', -0.129),
  ('Q38W', -0.112),
  ('T6V', -0.06),
  ('L11Q', -0.684),
  ('T22L', -0.192),
  ('E8T', 0.01),
  ('A21W', -0.448),
  ('G14R', -0.583),
  ('D39V', -0.721),
  ('W37C', -0.52),
  ('T20P', -0.937),
  ('N45D', -0.092),
  ('F19I', 0.023),
  ('P13A', -0.043),
  ('R41I', -0.603),
  ('K42V', -0.166),
  ('R25W', -0.64),
  ('E32G', -0.091),
  ('L11C', -0.432),
  ('L11I', -0.337),
  ('G14A', -0.365),
  ('K33V', -0.905),
  ('D39T', -0.761),
  ('R41F', -0.902),
  ('E32D', -0.072),
  ('V5R', -0.111),
  ('T35N', -0.57),
  ('A43N', 0.046),
  ('E8R', -0.109),
  ('W15I', -0.802),
  ('P12N', -0.556),
  ('E32H', -0.05),
  ('S2G', -0.034),
  ('W15A', -0.913),
  ('W37P', -0.51),
  ('K33A', -0.209),
  ('P40I', -0.97),
  ('G23V', -0.925),
  ('T36K', -0.954),
  ('S2T', -0.092),
  ('Q38M', -0.044),
  ('A43S', 0.01),
  ('L28G', -0.583),
  ('W37L', -0.296),
  ('D7H', 0.053),
  ('P47S', -0.125),
  ('T18E', -0.064),
  ('P10K', -0.115),
  ('D4R', -0.151),
  ('T18V', -0.035),
  ('H30W', -0.378),
  ('L11V', -0.381),
  ('H30G', -0.3),
  ('L28S', -0.205),
  ('A43Q', -0.056),
  ('T20S', -0.115),
  ('Q46L', -0.022),
  ('N45S', -0.093),
  ('E32V', -0.19),
  ('G23D', -0.361),
  ('G23W', -0.964),
  ('N29T', -0.847),
  ('L28W', -0.426),
  ('D4A', -0.083),
  ('H30N', -0.088),
  ('G23H', -0.476),
  ('A43Y', -0.127),
  ('P10N', -0.129),
  ('R41V', -0.518),
  ('T35P', -0.899),
  ('W15E', -0.689),
  ('T22K', -0.087);
